procedure-text: The drug is tested on Bacteroides uniformis strain: ATCC8492 for biotransformation. The drug concentrations were measured before and after a 12-h incubation by liquid-chromatography-coupled mass spectrometry (LC–MS)
assay-context: 2 µM
endpoint-name: Bacterial Biotransformation

- compound: "CCN(CC)CCOC(=O)C(Cc1cccc2ccccc12)CC1CCCO1.O=C(O)C(=O)O (stereo not given) [NAFRONYL OXALATE]"
  Bacterial Biotransformation: "Compound metabolized"
- compound: "COc1ccccc1N1CCN(CC(O)COc2cccc3ccccc23)CC1 (stereo not given) [NAFTOPIDIL]"
  Bacterial Biotransformation: "Compound NOT metabolized"
- compound: "O=C(O)CCC(=O)O.O=C(O[C@H]1CN2CCC1CC2)N1CCc2ccccc2[C@@H]1c1ccccc1 [SOLIFENACIN SUCCINATE]"
  Bacterial Biotransformation: "Compound NOT metabolized"
- compound: "CCCc1nn(C)c2c(=O)[nH]c(-c3cc(S(=O)(=O)N4CCN(C)CC4)ccc3OCC)nc12.O=C(O)CC(O)(CC(=O)O)C(=O)O [SILDENAFIL CITRATE]"
  Bacterial Biotransformation: "Compound NOT metabolized"
- compound: "COc1cc(C(=O)NCc2ccc(OCCN(C)C)cc2)cc(OC)c1OC [TRIMETHOBENZAMIDE]"
  Bacterial Biotransformation: "Compound NOT metabolized"
- compound: "CCCCC(=O)O[C@]1(C(=O)CO)[C@@H](C)C[C@H]2[C@@H]3CCC4=CC(=O)C=C[C@]4(C)[C@@]3(F)[C@@H](O)C[C@@]21C [BETAMETHASONE VALERATE]"
  Bacterial Biotransformation: "Compound metabolized"

Specify reported Bacterial Biotransformation for the compound shown: CCOC(=O)[C@H](CCc1ccccc1)N[C@H]1CCc2ccccc2N(CC(=O)O)C1=O [BENAZEPRIL]
Compound metabolized

Specify reported Bacterial Biotransformation for the compound shown: CN1[C@@H]2CC[C@H]1C[C@@H](OC(=O)C(CO)c1ccccc1)C2 (stereo not given in full) [ATROPINE]
Compound NOT metabolized

Specify reported Bacterial Biotransformation for the compound shown: C=CCN1CC[C@]23c4c5ccc(O)c4O[C@H]2C(=O)CC[C@@]3(O)[C@H]1C5 [NALOXONE]
Compound metabolized

Specify reported Bacterial Biotransformation for the compound shown: CCN(CC)CCOCCOC(=O)C1(c2ccccc2)CCCC1.O=C(O)CC(O)(CC(=O)O)C(=O)O [CARBETAPENTANE CITRATE]
Compound metabolized

###

procedure-text: The drug is tested on Parabacteroides merdae strain: ATCC43184 for biotransformation. The drug concentrations were measured before and after a 12-h incubation by liquid-chromatography-coupled mass spectrometry (LC–MS)
assay-context: 2 µM
endpoint-name: Bacterial Biotransformation

Observe how each entry below is paired with its result.
- molecule: "CN(C/C=C/C#CC(C)(C)C)Cc1cccc2ccccc12"
  Bacterial Biotransformation: "Compound NOT metabolized"
- molecule: "CS(=O)(=O)O.O.O.O.O=C1Cc2cc(CCN3CCN(c4nsc5ccccc45)CC3)c(Cl)cc2N1 [ZIPRASIDONE MESYLATE]"
  Bacterial Biotransformation: "Compound NOT metabolized"
- molecule: "CC1=C(CC(=O)O)c2cc(F)ccc2/C1=C\\c1ccc([S+](C)[O-])cc1 (centres undefined)"
  Bacterial Biotransformation: "Compound NOT metabolized"
- molecule: "CN1CCOC(c2ccccc2)c2ccccc2C1 (centres undefined)"
  Bacterial Biotransformation: "Compound NOT metabolized"
- molecule: "C#C[C@]1(O)CC[C@H]2[C@@H]3CCC4=CC(=O)CC[C@@H]4[C@H]3CC[C@@]21CC"
  Bacterial Biotransformation: "Compound metabolized"
- molecule: "O=C(CCCN1CCC2(CC1)C(=O)NCN2c1ccccc1)c1ccc(F)cc1"
  Bacterial Biotransformation: "Compound NOT metabolized"
- molecule: "CN1CCN(C2=Nc3cc(Cl)ccc3Nc3ccccc32)CC1"
  Bacterial Biotransformation: "Compound NOT metabolized"
- molecule: "COc1ccnc(C[S+]([O-])c2nc3ccc(OC(F)F)cc3[nH]2)c1OC (centres undefined)"
  Bacterial Biotransformation: "Compound metabolized"

Turning now to a further molecule:
Specify reported Bacterial Biotransformation for the molecule shown: CC(C)(C#N)c1cc(Cn2cncn2)cc(C(C)(C)C#N)c1
Compound metabolized
